- target system: Vps34 (Homo sapiens, UniProt Q8NEB9)
- Sequence (Q8NEB9 whole entry, species assumed): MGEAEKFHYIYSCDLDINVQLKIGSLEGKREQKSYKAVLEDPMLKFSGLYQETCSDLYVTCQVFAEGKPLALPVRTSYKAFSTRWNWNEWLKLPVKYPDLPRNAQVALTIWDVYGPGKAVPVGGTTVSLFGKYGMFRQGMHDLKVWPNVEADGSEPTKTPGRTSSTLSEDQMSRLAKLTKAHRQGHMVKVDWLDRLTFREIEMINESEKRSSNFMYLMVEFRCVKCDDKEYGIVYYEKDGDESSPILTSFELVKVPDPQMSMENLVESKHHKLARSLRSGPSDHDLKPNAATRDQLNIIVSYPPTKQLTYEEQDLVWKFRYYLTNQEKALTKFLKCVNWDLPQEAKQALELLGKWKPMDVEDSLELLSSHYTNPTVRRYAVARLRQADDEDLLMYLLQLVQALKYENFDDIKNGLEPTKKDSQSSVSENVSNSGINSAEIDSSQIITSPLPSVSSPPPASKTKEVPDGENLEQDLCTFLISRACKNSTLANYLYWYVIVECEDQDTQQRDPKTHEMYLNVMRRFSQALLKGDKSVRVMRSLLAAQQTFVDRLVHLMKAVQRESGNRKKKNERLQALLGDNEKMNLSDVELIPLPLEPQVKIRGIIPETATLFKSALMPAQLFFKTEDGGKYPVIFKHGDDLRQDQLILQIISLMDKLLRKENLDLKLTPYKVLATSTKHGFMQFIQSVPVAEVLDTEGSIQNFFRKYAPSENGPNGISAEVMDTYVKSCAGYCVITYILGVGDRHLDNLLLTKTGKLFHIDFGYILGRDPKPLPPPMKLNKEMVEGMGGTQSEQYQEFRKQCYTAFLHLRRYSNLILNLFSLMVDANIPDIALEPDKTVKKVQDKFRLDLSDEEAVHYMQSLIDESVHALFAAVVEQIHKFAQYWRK
- assay: Kinase Glo Luminescent Kinase Assay (Kglo), assay C
- Assay type: biochemical
- condition: read-out: Assay C VPS34 IC50
value kind: IC50

Examples from the recorded data:
>  <compound>
CCN1CCC[C@H]1CNS(=O)(=O)c1ccc(C)c(-c2cnc(N)c(-c3cn(C)nc3C)n2)c1 [Example 128.1]

>  <value kind>
IC50

>  <result>
> 10 µM

$$$$
>  <compound>
Cc1ccc(S(=O)(=O)NCC(=O)C(C)(C)C)cc1-c1cnc(N)c(-n2cncn2)n1 [Example 36]

>  <value kind>
IC50

>  <result>
> 10 µM

$$$$
>  <compound>
Cc1ccc(S(=O)(=O)NCC(C)(C)O)cc1-c1cnc(N)c(-n2cncn2)n1 [Example 6]

>  <value kind>
IC50

>  <result>
> 9.4 µM

$$$$
>  <compound>
Cc1ccc(S(=O)(=O)NC2CC3(CC(O)C3)C2)cc1-c1cnc(N)c(-c2cn(C)nc2C)n1 (single isomer, unassigned) [Example 9b]

>  <value kind>
IC50

>  <result>
> 10 µM

$$$$
>  <compound>
Cc1ccc(S(=O)(=O)NCCC(C)(C)O)cc1-c1cnc(N)c(-c2cn[nH]c2)n1 [Example 119.33]

>  <value kind>
IC50

>  <result>
> 9.1 µM

$$$$

The compound Cc1ccc(S(=O)(=O)NCCC(C)(C)O)cc1-c1cnc(N)c(-n2ccnc2)n1 [Example 61] on Vps34 (Homo sapiens, UniProt Q8NEB9): IC50 was > 9.1 µM

The compound Cc1cn(-c2nc(-c3cc(S(=O)(=O)NCCCO)ccc3C)cnc2N)cn1 [Example 57] on Vps34 (Homo sapiens, UniProt Q8NEB9): IC50 was > 9.1 µM

The compound Cc1ccc(S(=O)(=O)NC[C@H]2C[C@@H](O)C2)cc1-c1cnc(N)c(-c2nc(C3CC3)no2)n1 [Example 94] on Vps34 (Homo sapiens, UniProt Q8NEB9): IC50 was > 9.1 µM

The compound Cc1ccc(S(=O)(=O)N[C@@H]2CCOC2)cc1-c1cnc(N)c(-n2cncn2)n1 [Example 127.20] on Vps34 (Homo sapiens, UniProt Q8NEB9): IC50 was > 10 µM

The compound CCONS(=O)(=O)c1ccc(C)c(-c2cnc(N)c(-n3cncn3)n2)c1 [Example 112] on Vps34 (Homo sapiens, UniProt Q8NEB9): IC50 was > 10 µM

The compound Cc1ccc(S(=O)(=O)NCCC(C)(C)O)cc1-c1cnc(N)c(-c2cnn(CC(C)C)c2)n1 [Example 119.32] on Vps34 (Homo sapiens, UniProt Q8NEB9): IC50 was > 9.1 µM

The compound Cc1ccc(S(=O)(=O)NCC(C)(C)O)cc1-c1cnc(N)c(-c2cnn(CCN(C)C)c2)n1 [Example 142] on Vps34 (Homo sapiens, UniProt Q8NEB9): IC50 was > 10 µM

The compound Cc1ccc(S(=O)(=O)NCC2(CO)CCCC2)cc1-c1cnc(N)c(-n2cncn2)n1 [Example 127.25] on Vps34 (Homo sapiens, UniProt Q8NEB9): IC50 was > 10 µM

The compound Cc1ccc(S(=O)(=O)NC[C@H]2CCOC2)cc1-c1cnc(N)c(-c2cn(C)nc2C)n1 [Example 16] on Vps34 (Homo sapiens, UniProt Q8NEB9): IC50 was > 10 µM

The compound Cc1cc(-c2nc(-c3cc(S(=O)(=O)N[C@H]4CC[C@H](O)CC4)ccc3C)cnc2N)on1 [Example 4] on Vps34 (Homo sapiens, UniProt Q8NEB9): IC50 was > 9.1 µM

The compound COc1ccc(-c2nc(-c3cc(S(=O)(=O)NCCC(C)(C)O)ccc3C)cnc2N)c(C)n1 [Example 119.14] on Vps34 (Homo sapiens, UniProt Q8NEB9): IC50 was > 9.1 µM

----------
- target system: PI 3-kinase delta (Homo sapiens, UniProt O00329)
- Sequence (O00329 whole entry): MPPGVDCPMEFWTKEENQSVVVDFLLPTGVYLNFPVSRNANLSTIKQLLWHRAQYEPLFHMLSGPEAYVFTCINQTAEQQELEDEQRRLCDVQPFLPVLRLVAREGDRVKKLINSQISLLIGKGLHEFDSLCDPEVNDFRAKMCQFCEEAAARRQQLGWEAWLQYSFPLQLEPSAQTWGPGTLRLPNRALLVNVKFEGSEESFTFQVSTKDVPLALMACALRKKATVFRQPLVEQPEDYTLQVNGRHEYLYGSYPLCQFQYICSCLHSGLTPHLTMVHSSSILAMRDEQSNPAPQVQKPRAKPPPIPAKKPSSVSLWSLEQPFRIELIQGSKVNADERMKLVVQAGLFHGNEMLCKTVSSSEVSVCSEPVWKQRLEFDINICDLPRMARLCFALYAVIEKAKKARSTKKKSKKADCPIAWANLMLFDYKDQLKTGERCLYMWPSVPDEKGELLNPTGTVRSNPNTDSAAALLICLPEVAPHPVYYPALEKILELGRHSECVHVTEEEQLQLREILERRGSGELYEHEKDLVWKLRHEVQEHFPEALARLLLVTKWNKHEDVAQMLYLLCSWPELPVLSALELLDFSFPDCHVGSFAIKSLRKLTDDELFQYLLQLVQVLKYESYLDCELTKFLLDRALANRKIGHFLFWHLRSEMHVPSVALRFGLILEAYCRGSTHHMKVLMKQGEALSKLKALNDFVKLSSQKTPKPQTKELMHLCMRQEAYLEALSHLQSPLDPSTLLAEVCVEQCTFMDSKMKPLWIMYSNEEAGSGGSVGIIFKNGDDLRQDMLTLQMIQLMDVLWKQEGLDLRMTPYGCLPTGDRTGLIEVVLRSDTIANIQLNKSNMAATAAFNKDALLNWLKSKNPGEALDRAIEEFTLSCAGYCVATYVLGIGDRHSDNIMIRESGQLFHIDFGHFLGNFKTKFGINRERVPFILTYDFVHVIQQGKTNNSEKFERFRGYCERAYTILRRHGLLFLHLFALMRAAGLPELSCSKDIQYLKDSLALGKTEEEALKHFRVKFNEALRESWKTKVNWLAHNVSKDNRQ
- Sequence (Q63787 whole entry partner): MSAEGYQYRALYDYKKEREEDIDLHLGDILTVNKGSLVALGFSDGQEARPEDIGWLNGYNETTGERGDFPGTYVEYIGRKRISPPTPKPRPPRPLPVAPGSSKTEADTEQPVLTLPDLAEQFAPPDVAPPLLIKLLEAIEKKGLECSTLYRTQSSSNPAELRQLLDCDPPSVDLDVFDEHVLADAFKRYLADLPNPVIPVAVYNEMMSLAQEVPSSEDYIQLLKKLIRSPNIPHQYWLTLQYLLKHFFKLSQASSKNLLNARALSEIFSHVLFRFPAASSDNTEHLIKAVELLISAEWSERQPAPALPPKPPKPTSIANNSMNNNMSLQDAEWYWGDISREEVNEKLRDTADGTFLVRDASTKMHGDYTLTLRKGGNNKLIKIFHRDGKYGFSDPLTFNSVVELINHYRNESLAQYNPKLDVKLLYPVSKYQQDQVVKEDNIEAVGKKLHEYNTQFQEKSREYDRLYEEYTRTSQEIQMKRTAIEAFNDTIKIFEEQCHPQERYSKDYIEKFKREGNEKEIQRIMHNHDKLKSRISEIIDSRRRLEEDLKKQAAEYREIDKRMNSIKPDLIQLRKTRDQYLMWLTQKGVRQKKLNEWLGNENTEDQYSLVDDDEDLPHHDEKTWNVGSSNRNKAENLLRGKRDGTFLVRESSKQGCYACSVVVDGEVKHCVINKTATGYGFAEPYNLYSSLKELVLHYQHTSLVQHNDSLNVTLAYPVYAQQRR
- assay: Cellular assay J1, p-Akt (S473) in Rat-1 cells, Surefire format
- Format: cell-based
- condition: non-asterisked data: version J1 (Surefire format), Rat-1 cells; read-out: Assay J PI3Kδ IC50
value kind: IC50 (nM)

Examples from the recorded data:
>  <compound>
CCONS(=O)(=O)c1ccc(C)c(-c2cnc(N)c(-n3cncn3)n2)c1

>  <target system>
PI 3-kinase delta (Homo sapiens, UniProt O00329)

>  <IC50 [nM]>
310

$$$$
>  <compound>
Cc1ccc(S(=O)(=O)NCCC(C)(C)O)cc1-c1cnc(N)c(-c2cn[nH]c2)n1

>  <target system>
PI 3-kinase delta (Homo sapiens, UniProt O00329)

>  <IC50 [nM]>
3590

$$$$
>  <compound>
Cc1ccc(S(=O)(=O)NCCC(C)(C)O)cc1-c1cnc(N)c(-c2cccnc2F)n1

>  <target system>
PI 3-kinase delta (Homo sapiens, UniProt O00329)

>  <IC50 [nM]>
2820

$$$$
>  <compound>
Cc1ccc(S(=O)(=O)NCCC(C)(C)O)cc1-c1cnc(N)c(-c2cnn(CC(C)C)c2)n1

>  <target system>
PI 3-kinase delta (Homo sapiens, UniProt O00329)

>  <IC50 [nM]>
790

$$$$
>  <compound>
Cc1ccc(S(=O)(=O)N[C@H]2CC[C@](C)(O)CC2)cc1-c1cnc(N)c(-n2cncn2)n1 [Example 69a]

>  <target system>
PI 3-kinase delta (Homo sapiens, UniProt O00329)

>  <IC50 [nM]>
2660

$$$$
>  <compound>
Cc1ccc(S(=O)(=O)N[C@H]2CC[C@H](O)CC2)cc1-c1cnc(N)c(-c2ccncc2)n1

>  <target system>
PI 3-kinase delta (Homo sapiens, UniProt O00329)

>  <IC50 [nM]>
3520

$$$$
>  <compound>
Cc1ccc(S(=O)(=O)NCCC(C)(C)O)cc1-c1cnc(N)c(-c2cnn(Cc3ccncc3)c2)n1

>  <target system>
PI 3-kinase delta (Homo sapiens, UniProt O00329)

>  <IC50 [nM]>
1610

$$$$
>  <compound>
Cc1cc(F)c(S(=O)(=O)NCCC(C)(C)O)cc1-c1cnc(N)c(-c2cnn(C)c2)n1

>  <target system>
PI 3-kinase delta (Homo sapiens, UniProt O00329)

>  <IC50 [nM]>
2210

$$$$

P = Cc1ccc(S(=O)(=O)NCCC(C)(C)O)cc1-c1cnc(N)c(-c2ccc(N3CCCC3)nc2)n1
Q = Cc1ccc(S(=O)(=O)NCC(C)(C)O)cc1-c1cnc(N)c(-c2cnc(C3CC3)s2)n1
R = Cc1cn(-c2nc(-c3cc(S(=O)(=O)NCCC(C)(C)O)ccc3C)cnc2N)cn1
S = Cc1noc(-c2nc(-c3cc(S(=O)(=O)NCCC(C)(C)O)ccc3C)cnc2N)n1
T = Cc1ncc(-c2nc(-c3cc(S(=O)(=O)NC[C@H]4CCOC4)ccc3C)cnc2N)s1
Sort ascending by IC50. Please reply with the labels ordered as requested. Many thanks. T, Q, S, R, P
(T: 160 nM, Q: 460 nM, S: 1170 nM, R: 3250 nM, P: 7160 nM)

----------
- target system: mTOR (Homo sapiens)
- assay: Lanthascreen kinase binding assay, assay G
- condition: read-out: Assay G mTOR IC50
pIC50: −log10 of the molar value. Counter-ions that a name gives are not always drawn.
value kind: pIC50

Examples from the recorded data:
>  <compound>
Cc1ccc(S(=O)(=O)NCCC(C)(C)O)cc1-c1cnc(N)c(-c2cccs2)n1

>  <numeric readout>
5.06

$$$$
>  <compound>
Cc1ccc(S(=O)(=O)NC[C@H]2CCNC2)cc1-c1cnc(N)c(-n2cncn2)n1 [Example 127.58, trifluoroacetic acid salt]

>  <numeric readout>
5.92

$$$$
>  <compound>
Cc1ncc(-c2nc(-c3cc(S(=O)(=O)NCCCO)c(F)cc3C)cnc2N)s1

>  <numeric readout>
5.46

$$$$

P = Cc1ccc(S(=O)(=O)NOC2CCOC2)cc1-c1cnc(N)c(-n2cncn2)n1 (stereo not shown)
Q = Cc1cc(-c2nc(-c3cc(S(=O)(=O)NCC4(O)CCCCC4)ccc3C)cnc2N)ccn1
Min pIC50? P | Q Answer by quoting the chosen item's label. Q
(Q: 5.30, P: 5.74)

I = Cc1ccc(S(=O)(=O)NOC(C)C)cc1-c1cnc(N)c(-n2cncn2)n1
II = Cc1ccc(S(=O)(=O)NCC2COC2)cc1-c1cnc(N)c(-n2cncn2)n1
Min pIC50? I | II Answer by quoting the chosen item's label. II

A = Cc1cc(F)c(S(=O)(=O)NCCC(C)(C)O)cc1-c1cnc(N)c(-c2cnn(C)c2)n1
B = CCc1noc(-c2nc(-c3cc(S(=O)(=O)NC4CNC4)ccc3C)cnc2N)n1
Min pIC50? A | B Answer by quoting the chosen item's label. A
(A: 5.06, B: 6.02)

I = Cc1cc(F)c(S(=O)(=O)NCC(C)(C)O)cc1-c1cnc(N)c(-n2cncn2)n1
II = COc1cc(-c2nc(-c3cc(S(=O)(=O)NCCC(C)(C)O)ccc3C)cnc2N)ccn1
Name the one with the greater pIC50 value, either I or II as given. Answer by quoting the chosen item's label. II
(II: 5.43, I: 5.18)

// provenance: patent US10004732B2
